System: RPS6KA5(Kin.Dom.1-N-terminal)
condition: concentration: 1 μM, replicates: in singlicate; n = 1;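 note: KINOMEscan kinase panel screen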
measured quantity: %Inh (%)
Field format: number, assumed %, no unit text.

Some solved entries appear below for comparison.
{"columns": ["compound", "units", "val"],
 "data": [
  ["Fc1ccc(-c2ncn(CCCN3CCOCC3)c2-c2cccnc2)cc1", "%", 0],
  ["Cn1ccc2ncnc(Oc3ccc(NC(=O)Nc4ccncc4)c(Cl)c3)c21", "%", 13],
  ["O=C(c1ccc(-c2cc(-c3c[nH]nc3-c3ccccn3)ccn2)cc1)N1CCOCC1", "%", 0],
  ["COc1cc(Nc2nccc(N3CCC(NC(=O)c4cccc(NC(C)=O)c4)C3)n2)cc(OC)c1OC (stereo not drawn)", "%", 11]
]}

Query :: Which %Inh value is on record for O=c1cc(N2CCOCC2)nc2n(Cc3cccc(F)c3)ccn12 ?
Result :: 26

Query :: Which %Inh is listed for CCc1nc(-c2cccc(C)c2)c(-c2ccnc(NCc3ccccc3)c2)s1 ?
Result :: 1

Query :: // %Inh lookup, key: COCCNC(=O)c1ccc(-c2cc(C(=O)NC3CC3)cc(F)c2C)cc1
Result :: 18

Query :: Returns the measured %Inh for the input compound. Input: O=C1Cc2cc(Nc3nc(NCc4cccc(S(=O)(=O)C(F)(F)F)c4)ncc3C(F)(F)F)ccc2N1
Result :: 0

Query :: I'd like to know its %Inh. The compound in question is Cl.Oc1cccc(Nc2ccnc3cc(-c4ccncc4)ccc23)c1
Result :: 16

* * *

%Inh for assorted compounds
Test system: AMPK-alpha1
Construct: gene PRKAA1
condition: concentration: 1 μM, replicates: in singlicate; n = 1
Quick reminder: number only, in %, skip the unit.

{"columns": ["compound", "experimental system", "val"],
 "data": [
  ["COc1ccc(COc2cc(-n3cnc4ccccc43)sc2C(N)=O)cc1", "AMPK-alpha1", 26],
  ["COc1cc2ncn(-c3cc(OCc4sccc4Cl)c(C(N)=O)s3)c2cc1OC", "AMPK-alpha1", 0]
]}

Query :: Given the entry O=C(Nc1n[nH]c2cc(-c3cccc(F)c3)ccc12)C1CC1 , report its measured %Inh.
Result :: 10

Query :: Item under review: CN(C1=C(c2ccccc2)C(=O)NC1=O)c1ccccc1 . Reported %Inh?
Result :: 0

Query :: Entry Cc1nnc(-c2ccc3occ(-c4ccc(C(C)O)cc4)c3c2)o1 (stereo not drawn) : reported %Inh = ?
Result :: 0

Query :: Request the reported %Inh associated with COc1ccc(CNC(=O)NC2CCN(c3ccnc(Nc4ccc(OC)cc4)n3)C2)cc1 (stereo not drawn)
Result :: 0

Query :: So what's the measured %Inh for this one? Nc1nccc(-c2c(-c3ccc(F)cc3)ncn2C2CCN(CC(F)(F)F)CC2)n1
Result :: 0

Query :: Requested field: %Inh. Item: COc1ccc(Nc2ncc(C#N)c(Nc3ccccc3C(N)=O)n2)cc1N1CCN(C)CC1.Cl
Result :: 97.3

Query :: For CSc1ccc(-c2cc3ncnc(SCC(=O)O)c3s2)cc1 , what is its reported %Inh?
Result :: 14

* * *

Tested on: PRKCE
condition: concentration: 1 μM, replicates: in singlicate; n = 1
Listed here: items and their measured %Inh.
// units = %; emit number, no label

Example entries and their recorded answers appear below.
{"columns": ["compound", "val"],
 "data": [
  ["CCn1cnc2c(N)ncnc21", 18],
  ["Cc1cccc(Cn2ccn3c(=O)cc(N4CCOCC4)nc23)c1", 2],
  ["O=C(c1ccc(-c2cc(-c3c[nH]nc3-c3ccccn3)ccn2)cc1)N1CCOCC1", 14],
  ["Nc1nc(-c2ccc3c(N)n[nH]c3c2)cc(N2CCCC2)n1", 0],
  ["Cn1ccc2ncnc(Oc3ccc(NC(=O)Nc4ccncc4)c(Cl)c3)c21", 0]
]}

Query :: Which %Inh reading was recorded for the compound Cc1c(Cn2c(C)nn3c(=O)cc(N4CCOC(C)C4)nc23)cccc1C(F)(F)F (stereo not shown) ?
Result :: 0

Query :: Tell me the measured %Inh of O=C(Nc1n[nH]c2cc(-c3cccc(F)c3)ccc12)C1CC1 , please.
Result :: 34

* * *

System: CTK
Construct: gene MATK
condition: concentration: 1 μM, replicates: in singlicate; n = 1
measured quantity: %Inh
Write the quantity with the unit trailing the number.

{"columns": ["molecule", "%Inh"],
 "data": [
  ["O=c1cc(N2CCOCC2)nc2n(Cc3cccc(C(F)(F)F)c3)ccn12 [GSK2297543]", "0%"],
  ["Cc1cccc(-c2nc(Nc3ccc4ncsc4c3)c3ccccc3n2)n1 [GW867588]", "0%"],
  ["COc1cc(Nc2nccc(N3CCC(NC(=O)c4cccc(NC(C)=O)c4)C3)n2)cc(OC)c1OC (stereo not drawn) [GSK1379754]", "0%"]
]}

Query :: Reported %Inh, molecule CC(C)Oc1ccc2c(-c3ccnc(Nc4ccc(N5CCN(C)CC5)cc4)n3)cnn2n1 [GW696155] : ____
Result :: 0%

* * *

System: PLK3
condition: concentration: 1 μM, replicates: in singlicate; n = 1
Rule: %Inh below 10% gives True. Equal to or above 10% gives False.

// known answers, use as guide
{"columns": ["molecule", "label value"],
 "data": [
  ["CN1c2ccc(CNc3ccc(F)cc3)cc2-c2c(cnn2C)S1(=O)=O", "False"],
  ["NS(=O)(=O)c1cccc(-c2ccc3ncc(N4CCOCC4)nc3c2)c1", "True"],
  ["Cc1nnc(-c2ccc3ncc(-c4ccc(S(C)=O)cc4)n3c2)o1 (centres unmarked)", "False"]
]}

Consider now this further molecule.
Query :: In plain terms, does CCn1cnc2c(N)ncnc21 come in under 10% for %Inh?
Result :: False

* * *

System: HPK1
condition: concentration: 1 μM, replicates: in singlicate; n = 1
measured quantity: %Inh

Please review the entries below; each comes with its answer.
{"columns": ["compound", "val"],
 "data": [
  ["COc1ccc(Nc2nccc(N3CCC(NC(=O)Nc4cc(C)ccc4C)C3)n2)cc1 (centres unmarked) [GSK1379741]", "36%"],
  ["CN1c2ccc(NCc3ccc(F)cc3)cc2-c2c(cnn2C)S1(=O)=O", "26%"],
  ["CCCCCc1nc2c(N)ncnc2n1CCCCC [SKF-97255]", "4%"],
  ["Cc1nnc(-c2ccc3ncc(-c4ccc(S(C)=O)cc4)n3c2)o1 (centres unmarked)", "0%"]
]}

Query :: For O=C(Nc1cccc(-c2nn3ncccc3c2-c2ccnc(Nc3cccc(C(F)(F)F)c3)n2)c1)c1c(F)cccc1F [GSK299495] , what is its reported %Inh?
Result :: 35%

* * *

Tested on: IGF1R
condition: concentration: 1 μM, replicates: in singlicate; n = 1
measured quantity: %Inh (%)
The figure you give is taken to be in %; do not add the unit.

Query :: Can you look up the measured %Inh of Cc1cccc(-c2nc(Nc3ccc4ncsc4c3)c3ccccc3n2)n1 for me?
Result :: 0

Query :: Quick one: %Inh of CCc1nc(-c2cccc(C)c2)c(-c2ccnc(NCc3ccccc3)c2)s1 ?
Result :: 0

Query :: # get_value(readout='%Inh', item= O=C(Nc1cccc(-c2nn3ncccc3c2-c2ccnc(Nc3cccc(C(F)(F)F)c3)n2)c1)c1c(F)cccc1F )
Result :: 14

Query :: Would you mind telling me what %Inh value was observed for O=C(NCCNc1ccnc(Nc2ccc(F)cc2)n1)c1cc2ccccc2s1 ?
Result :: 0

Query :: Looking for the measured %Inh of O=c1cc(N2CCOCC2)nc2n(Cc3cccc(C(F)(F)F)c3)ccn12 , can you help?
Result :: 0

Query :: Item under review: [2H]C([2H])(c1cccc(C(F)(F)F)c1C)n1ccn2c(=O)nc(N3CCOCC3)cc12 . Reported %Inh?
Result :: 0

* * *

Tested on: CDK3
condition: concentration: 1 μM, replicates: in singlicate; n = 1
Consider the following compounds and their measured %Inh readings.
Don't forget the unit after the value.

{"columns": ["compound", "%Inh"],
 "data": [
  ["O=C1Cc2cc(Nc3nc(NCc4cccc(S(=O)(=O)C(F)(F)F)c4)ncc3C(F)(F)F)ccc2N1", "0%"],
  ["COc1ccc(Nc2nccc(N3CCC(NC(=O)Nc4cc(C)ccc4C)C3)n2)cc1 (stereo not drawn)", "7%"],
  ["O=C(Nc1n[nH]c2cc(-c3cccc(F)c3)ccc12)C1CC1", "0%"]
]}

Query :: Record lookup: for CDK3, what %Inh belongs to Cc1cccc(Cn2ccn3c(=O)cc(N4CCOCC4)nc23)c1 ?
Result :: 20%

Query :: Provide the documented %Inh with CDK3 as the system for Cc1nnc(-c2ccc3occ(-c4ccc(C(C)O)cc4)c3c2)o1 (stereo not drawn)
Result :: 4%

Query :: Enter reported %Inh observed with CDK3 for CC(C)(C)n1cnc2c(N)ncnc21
Result :: 0%

Query :: Write down the reported %Inh of COc1cc(Nc2nccc(N3CCC(NC(=O)c4cccc(NC(C)=O)c4)C3)n2)cc(OC)c1OC (stereo not drawn) , test system: CDK3.
Result :: 0%

Query :: For the record CCCCCc1nc2c(N)ncnc2n1CCCCC , what value of %Inh is listed for CDK3?
Result :: 9%

Query :: Give the reported %Inh for Nc1nccc(-c2c(-c3ccc(F)cc3)ncn2C2CCN(CC(F)(F)F)CC2)n1 (system: CDK3).
Result :: 11%

Data provenance: paper PMC5540273
